EXPERIMENT NOTES: qHTS for Inhibitors of the Functional Ribonucleoprotein Complex (vRNP) of Lassa (LASV) Arenavirus: Viability assay - alamar blue signal for LASV Primary Screen (AID 1347083); also: nearly all actives have a fitted effect of over 80% in size
EXPERIMENTAL CONTEXT: cell viability, alamar blue fluorescence (LASV minigenome counter-screen); series mostly up to 57.5 µM
Results filed as inconclusive are left out. The source made the active and inactive calls. Calls follow the shape of the full dose curve; tested in HEK293 reporter line.
Would you mind answering with one of these outcomes? active, inactive

>  <COMPOUND>
COC(C)(C)CCCC(C)C/C=C/C(C)=C/C(=O)OC(C)C (stereo not drawn)

>  <CLASS NAME>
inactive

$$$$
>  <COMPOUND>
CO/C=C(/C(=O)OC)c1ccccc1Oc1cc(Oc2ccccc2C#N)ncn1

>  <CLASS NAME>
active

$$$$
>  <COMPOUND>
OCCCc1ccccc1

>  <CLASS NAME>
inactive

$$$$
>  <COMPOUND>
COc1ccccc1[C@H](c1cccc2ccccc12)[C@@](C)(C#N)C(=O)N1CCC(c2cccc(C(F)(F)F)c2)CC1

>  <CLASS NAME>
active

$$$$
>  <COMPOUND>
Cc1cccc(C)c1NC(=O)c1ccc(N)cc1

>  <CLASS NAME>
inactive

$$$$

Problem: Could you kindly confirm the outcome this assay logged for Clc1ccc(-c2nc3sccn3c2C=NOCc2ccc(Cl)c(Cl)c2)cc1 ?
Solution: inactive

Problem: Could you kindly confirm the outcome this assay logged for CCC(=O)OC1CCC2C3CCC4=CC(=O)CC[C@@]4(C)C3CC[C@]12C (stereo partly drawn) ?
Solution: inactive

Problem: Could you kindly confirm the outcome this assay logged for Nc1ccccc1N ?
Solution: inactive

* * *

EXPERIMENT NOTES: Quantitative High-Throughput drug screen in 47 multiple myeloma cell lines against the NCATS MIPE library collection: KMS12BM_JCRB cell viability assay (AID 1918971); also: nearly all actives have a fitted effect of over 35% in size; also: potency is read from the fitted curve at half-maximal effect
EXPERIMENTAL CONTEXT: KMS12BM myeloma viability, CellTiter-Glo ATP, 48 h; series mostly up to 45.8 µM
Results filed as inconclusive are left out. The source made the active and inactive calls. The call rests on the fitted dose curve; in most records, active means well fitted cell-killing curve with a large enough effect; inconclusive means small, poorly fitted or top-dose-only effect, or effect the other way; inactive means no such curve, though single readings can be large or run the other way.
MEASUREMENT KIND: Potency

These solved cases illustrate the format of a correct answer.
>  <COMPOUND>
CCCCCC[C@H]1C(=O)O[C@H](C)[C@H](NC(=O)c2cccc(NC=O)c2O)C(=O)O[C@@H](C)[C@@H]1OC(=O)CC(C)C

>  <Potency>
6.62 µM (active)

$$$$
>  <COMPOUND>
O=C(O)CNC(=O)c1c(O)c2ccccc2n(Cc2ccccc2)c1=O

>  <Potency>
inactive

$$$$
>  <COMPOUND>
O=c1[nH]c2ccc(Cl)cc2c(N[C@@H]2CN3CCC2CC3)c1-c1nc2ccccc2[nH]1

>  <Potency>
1.66 µM (active)

$$$$
>  <COMPOUND>
O=C(Oc1ccc([N+](=O)[O-])cc1)N1CCC(C(O)(c2ccc3c(c2)OCO3)c2ccc3c(c2)OCO3)CC1

>  <Potency>
inactive

$$$$
>  <COMPOUND>
Cc1c(C(=O)Nc2cccc(C(F)(F)F)c2)cc(-c2ccccc2)n1CCCN1CCOCC1

>  <Potency>
13.2 µM (active)

$$$$
>  <COMPOUND>
O=c1[nH]c2ccccc2n1C1CCN(Cc2ccc(-c3[nH]c4cc5ncnc5cc4nc3-c3ccccc3)cc2)CC1

>  <Potency>
20.9 µM (active)

$$$$

Problem: # input compound: C#CC1(O)CCC2C3CCC4=CC(=O)CCC4(C)C3CCC21C (configuration not stated) ; wanted: its Potency
Solution: 4.18 µM (active)
